- Assay target: KRas-mediated phosphorylation of ERK in MKN1 cells (Homo sapiens)
- Construct: pERK HTRF read-out
- Sequence (P01116 1-188 isoform P01116-2): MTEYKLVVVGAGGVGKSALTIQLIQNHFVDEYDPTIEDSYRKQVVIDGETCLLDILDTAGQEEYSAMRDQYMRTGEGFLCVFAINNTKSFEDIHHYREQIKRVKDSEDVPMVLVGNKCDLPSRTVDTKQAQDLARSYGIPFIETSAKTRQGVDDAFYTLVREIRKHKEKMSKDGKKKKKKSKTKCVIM
- Experimental protocol: Inhibition of KRas-mediated phosphorylation of ERK (HTRF), MKN1 cells
- Type: cell-based
- Run parameters: MKN1 cells (KRas WT); HTRF pERK; 3 h incubation
Threshold 400 nM. IC50 below it: Yes. IC50 at it or above: No.

Molecule	Assay target	Assigned label
CN(CCCC(=O)Oc1c(F)cccc1F)c1nc(OC[C@@]23CCCN2C[C@H](F)C3)nc2c(F)c(-c3ccc(F)c4sc(N)c(C#N)c34)c(Cl)cc12	KRas-mediated phosphorylation of ERK in MKN1 cells (Homo sapiens)	No
CN(C)CCc1ccn(C(=O)C2CCCN(c3nc(OC[C@@]45CCCN4C[C@H](F)C5)nc4c(F)c(-c5ccc(F)c6sc(N)c(C#N)c56)c(Cl)cc34)CC2)n1 (some centres unmarked)	KRas-mediated phosphorylation of ERK in MKN1 cells (Homo sapiens)	No
CCc1c(F)ccc2cc(O)cc(N3CCc4c(nc(OC[C@@]56CCCN5C[C@H](F)C6)nc4N4CCCC(C(=O)n5ccc(C)n5)CCC4)C3)c12	KRas-mediated phosphorylation of ERK in MKN1 cells (Homo sapiens)	No
Cc1ccn(C(=O)[C@@H]2[C@@H]3CCN(c4nc(OC[C@@]56CCCN5C[C@H](F)C6)nc5c(F)c(-c6ccc(F)c7sc(N)c(C#N)c67)c(Cl)cc45)C[C@@H]32)n1	KRas-mediated phosphorylation of ERK in MKN1 cells (Homo sapiens)	Yes

---

Measured IC50 by item
- Assay target: KRas WT (Homo sapiens, UniProt P01116)
- Construct: Biotinylated KRas (corresponding to amino acids 1-169, produced at Accelegan Inc.); biotin (biotinylated); purchased Accelegan Inc
- Sequence (P01116 1-169 isoform P01116-2): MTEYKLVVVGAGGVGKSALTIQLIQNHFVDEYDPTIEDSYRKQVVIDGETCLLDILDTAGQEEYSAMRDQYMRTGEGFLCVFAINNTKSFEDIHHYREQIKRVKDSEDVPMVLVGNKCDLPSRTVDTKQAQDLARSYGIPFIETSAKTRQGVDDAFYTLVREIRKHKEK
- Experimental protocol: KRas binding assay, TR-FRET displacement of Cy5 labelled tracer
- Run parameters: 60-minute incubation at room temperature, 1% DMSO, pH 7.5
Property label: IC50 (nM)

Compound	Measured value
CCc1c(F)ccc2cc(O)cc(-c3ncc4c(N5CCN(C(=O)n6ccc(C)n6)C(CC#N)C5)nc(OC[C@@]56CCCN5C[C@H](F)C6)nc4c3F)c12 (stereo partly drawn)	8
N#Cc1c(N)sc2c(F)ccc(-c3c(Cl)cc4c(N5CCCC(C(=O)n6cccn6)CC5)nc(OC[C@@]56CCCN5C[C@H](F)C6)nc4c3F)c12 (stereo partly drawn)	7
CN(C)CCc1ccn(C(=O)C2CCCN(c3nc(OC[C@@]45CCCN4C[C@H](F)C5)nc4c(F)c(-c5ccc(F)c6sc(N)c(C#N)c56)c(Cl)cc34)CC2)n1 (stereo partly drawn)	10

---

- Assay target: KRas G12C (Homo sapiens, UniProt P01116, G12C)
- Construct: Biotinylated KRas (corresponding to amino acids 1-169, produced at Accelegan Inc.); biotin (biotinylated); purchased Accelegan Inc
- Sequence (P01116 1-169 isoform P01116-2 G12C): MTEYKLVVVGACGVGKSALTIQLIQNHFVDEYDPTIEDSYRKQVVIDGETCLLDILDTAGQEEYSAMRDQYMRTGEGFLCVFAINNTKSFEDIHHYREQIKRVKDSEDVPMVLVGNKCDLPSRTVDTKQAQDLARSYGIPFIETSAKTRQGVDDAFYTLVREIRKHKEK
- Experimental protocol: KRas binding assay, TR-FRET displacement of Cy5 labelled tracer
- Run parameters: 60-minute incubation at room temperature, 1% DMSO, pH 7.5
Property label: IC50 (nM)

1) Cc1ccn(C(=O)[C@@H]2[C@@H]3CCN(c4nc(OC[C@@]56CCCN5C[C@H](F)C6)nc5c(F)c(-c6ccc(F)c7sc(N)c(C#N)c67)c(Cl)cc45)C[C@@H]32)n1 64
2) O=C(Oc1ccccc1)C1CCN(c2nc(OCC34CCCN3CCC4)nc3c(F)c(-c4cccc5cccc(F)c45)ncc23)CC1 1770
3) CCc1c(F)ccc2cc(O)cc(-c3ncc4c(N5C[C@@H]6C[C@@H](C(=O)n7ccc(C)n7)[C@@H]6C5)nc(OC[C@@]56CCCN5C[C@H](F)C6)nc4c3F)c12 673
